Biological target: Adrenergic receptor alpha-2 (Rattus norvegicus, UniProt P22086+P19328+P22909)
Sequence (P22086 whole entry): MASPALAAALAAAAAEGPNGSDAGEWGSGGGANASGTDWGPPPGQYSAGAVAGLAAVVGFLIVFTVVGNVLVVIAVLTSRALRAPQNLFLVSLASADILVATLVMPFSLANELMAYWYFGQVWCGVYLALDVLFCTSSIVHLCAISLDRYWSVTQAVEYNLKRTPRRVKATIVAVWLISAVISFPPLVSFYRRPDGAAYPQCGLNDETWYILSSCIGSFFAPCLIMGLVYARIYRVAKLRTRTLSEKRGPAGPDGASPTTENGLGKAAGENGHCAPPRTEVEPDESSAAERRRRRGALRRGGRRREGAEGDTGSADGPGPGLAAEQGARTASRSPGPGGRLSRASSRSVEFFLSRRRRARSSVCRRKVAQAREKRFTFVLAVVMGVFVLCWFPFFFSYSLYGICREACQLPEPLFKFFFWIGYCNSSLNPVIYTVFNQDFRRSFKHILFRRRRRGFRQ
Sequence (P19328 whole entry): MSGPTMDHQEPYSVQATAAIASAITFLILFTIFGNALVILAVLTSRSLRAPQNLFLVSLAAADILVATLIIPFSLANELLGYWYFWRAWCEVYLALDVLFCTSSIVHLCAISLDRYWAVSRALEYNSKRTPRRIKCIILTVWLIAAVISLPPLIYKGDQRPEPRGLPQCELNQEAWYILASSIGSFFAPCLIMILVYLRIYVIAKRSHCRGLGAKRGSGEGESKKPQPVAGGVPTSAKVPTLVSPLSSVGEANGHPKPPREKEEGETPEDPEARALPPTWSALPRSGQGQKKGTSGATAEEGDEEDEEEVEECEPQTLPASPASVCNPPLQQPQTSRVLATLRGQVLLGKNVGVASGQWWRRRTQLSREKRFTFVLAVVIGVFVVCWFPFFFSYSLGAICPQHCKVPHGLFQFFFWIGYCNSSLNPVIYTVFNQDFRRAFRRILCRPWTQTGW
Sequence (P22909 whole entry): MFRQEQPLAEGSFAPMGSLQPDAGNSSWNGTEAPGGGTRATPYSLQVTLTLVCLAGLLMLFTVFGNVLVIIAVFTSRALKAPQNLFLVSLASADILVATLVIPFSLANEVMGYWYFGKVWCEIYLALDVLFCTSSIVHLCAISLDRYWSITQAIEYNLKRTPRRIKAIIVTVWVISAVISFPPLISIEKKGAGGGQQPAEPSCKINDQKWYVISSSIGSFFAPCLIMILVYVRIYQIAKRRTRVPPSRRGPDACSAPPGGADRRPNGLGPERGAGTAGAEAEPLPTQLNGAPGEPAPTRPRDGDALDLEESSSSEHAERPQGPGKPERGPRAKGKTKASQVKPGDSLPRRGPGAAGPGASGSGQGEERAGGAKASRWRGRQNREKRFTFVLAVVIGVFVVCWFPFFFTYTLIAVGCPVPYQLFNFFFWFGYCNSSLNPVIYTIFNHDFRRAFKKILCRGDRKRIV
Assay: Binding affinity towards Alpha-2 adrenergic receptor in rat cerebral cortex using [3H]rauwolscine
Format: tissue-based
# note: boundary value 3 nM maps to criterion not met; Ki below it maps to criterion met

# example entries with known answers
smiles_notation	class_name
CCOc1ccccc1OCCN1CCN(c2cnn(CCCCCCCN3CCN(c4ccccc4OC)CC3)c(=O)c2Cl)CC1	criterion met
CCOc1ccccc1N1CCN(CCCCCCCn2ncc(N3CCN(C(=O)c4ccco4)CC3)c(Cl)c2=O)CC1	criterion not met
CCOc1ccccc1N1CCN(CCCCCCCn2ncc(N3CCN(CCOc4ccccc4OC)CC3)c(Cl)c2=O)CC1	criterion not met

**Query** Bench note: check whether `CCOc1ccccc1OCCN1CCN(c2cnn(CCCCCCCN3CCN(c4ccccc4OC(C)C)CC3)c(=O)c2Cl)CC1` shows Ki below 3 nM
**Result** criterion not met

**Query** Repeat for the following molecule: `CC(C)Oc1ccccc1N1CCN(CCCCCCCn2ncc(N3CCN(C(=O)c4ccco4)CC3)c(Cl)c2=O)CC1`
**Result** criterion met

**Query** Repeat for the following molecule: `CCOc1ccccc1OCCN1CCN(c2cnn(CCCCCCCN3CCN(c4ccccc4OCC)CC3)c(=O)c2Cl)CC1`
**Result** criterion met
